# Test system: UACC-62
# method_notes: NCI tumour cell line growth inhibition, 48 h
The source made the active and inactive calls. Rule as the data show it: active = GI50 up to about 1.1 µM and inactive = higher.
# GI50 per record follows

Some compounds with recorded GI50:
compound	readout_value
CC1(C)CN=C(Nc2ccc(F)c(F)c2)S1	> 100 µM (inactive)
NC(CCP(=O)(O)CCC1C=CC=CC1)C(=O)O (stereo unspecified)	> 100 µM (inactive)
CC(C(=O)c1ccccc1)C(c1ccccc1)N1CCOCC1 (stereo unspecified)	> 100 µM (inactive)

Value of measured GI50 for the entry O=C1C(=Cc2ccco2)C(=O)C2CCCCC12 (stereo unspecified) : > 100 µM (inactive)

Value of measured GI50 for the entry `COc1cc(OC)cc(-c2cc(O)c3cc4c(cc3n2)OCO4)c1` : 0.209 µM (active)

Value of measured GI50 for the entry COc1cc(C2c3cc4c(cc3CC3COC(=O)N32)OCO4)cc(OC)c1OC (stereo unspecified) : 2.61 µM (inactive)
